targetEntity: Tubulin (Sus scrofa) (UniProt P02554+P02550)
experimentDescription: Competitive displacement of BODIPY-VBL from porcine brain tubulin at 1.8 uM in presence of GTP by fluorescence method relative to control
For each entry below, report its Activity value.
Give bare numbers, in %.

Record Activity for all entries; do not skip any.
1. CC[C@]1(NC(=O)N2Cc3ccc(NC(=O)c4cccnn4)cc3C2)C[C@H]2CN(CCc3c([nH]c4ccccc34)[C@@](C(=O)OC)(c3cc4c(cc3OC)N(C)[C@H]3[C@@](O)(C(=O)OC)[C@H](OC(C)=O)[C@]5(CC)C=CCN6CC[C@]43[C@@H]65)C2)C1
2. CC[C@]1(NC(=O)N2Cc3ccccc3C2)C[C@H]2CN(CCc3c([nH]c4ccccc34)[C@@](C(=O)OC)(c3cc4c(cc3OC)N(C)[C@H]3[C@@](O)(C(=O)OC)[C@H](OC(C)=O)[C@]5(CC)C=CCN6CC[C@]43[C@@H]65)C2)C1
3. CC[C@]1(NC(=O)N2Cc3ccc(NC(=O)c4cnccn4)cc3C2)C[C@H]2CN(CCc3c([nH]c4ccccc34)[C@@](C(=O)OC)(c3cc4c(cc3OC)N(C)[C@H]3[C@@](O)(C(=O)OC)[C@H](OC(C)=O)[C@]5(CC)C=CCN6CC[C@]43[C@@H]65)C2)C1
4. CC[C@]1(O)C[C@@H]2CN(CCc3c([nH]c4ccccc34)[C@@](C(=O)OC)(c3cc4c(cc3OC)N(C)[C@H]3[C@@](O)(C(=O)OC)[C@H](OC(C)=O)[C@]5(CC)C=CCN6CC[C@]43[C@@H]65)C2)C1

*A*
[101, 49, 105, 31]

Please fill in: Activity reported for CC[C@]1(NC(=O)N2Cc3ccc(NC(=O)c4ccncn4)cc3C2)C[C@H]2CN(CCc3c([nH]c4ccccc34)[C@@](C(=O)OC)(c3cc4c(cc3OC)N(C)[C@H]3[C@@](O)(C(=O)OC)[C@H](OC(C)=O)[C@]5(CC)C=CCN6CC[C@]43[C@@H]65)C2)C1 = 104
